Each entry below lists one item and its recorded kon value.
- Target Or System: T1, GPC3 (UniProt P51654 25-559, limits assumed)
- T1 construct: also called antigen GPC3; Glypican 3
- T1 sequence (P51654 25-559 limits assumed): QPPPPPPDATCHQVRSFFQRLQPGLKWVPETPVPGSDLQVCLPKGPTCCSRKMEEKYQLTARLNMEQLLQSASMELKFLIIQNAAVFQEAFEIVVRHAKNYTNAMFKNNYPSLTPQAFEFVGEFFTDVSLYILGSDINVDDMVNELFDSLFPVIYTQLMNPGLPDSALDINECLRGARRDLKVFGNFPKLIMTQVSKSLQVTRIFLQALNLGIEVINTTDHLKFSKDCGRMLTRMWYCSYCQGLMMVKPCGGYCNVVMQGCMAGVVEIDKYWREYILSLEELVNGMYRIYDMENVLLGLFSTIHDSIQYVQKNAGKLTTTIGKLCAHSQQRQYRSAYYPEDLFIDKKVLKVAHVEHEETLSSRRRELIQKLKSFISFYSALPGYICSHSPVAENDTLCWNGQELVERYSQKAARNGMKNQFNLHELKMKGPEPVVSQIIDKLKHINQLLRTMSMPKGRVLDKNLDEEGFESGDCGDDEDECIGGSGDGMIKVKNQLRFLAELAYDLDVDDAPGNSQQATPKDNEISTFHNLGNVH
- Assay Explanation: SPR as in Example 1 (Biacore T200; scFv-Fc captured, GPC3 in flow)
Answer with a number only, understood to be in M⁻¹ s⁻¹.

Quick one: kon of mouse anti-GPC3 GC33 scFv (VL-VH) (scFv, also called mouse scFv; not shown: C-terminal Fc tag (human Fc, used only for capture on the anti-human Fc chip) and any junction to it) scFv: DVVMTQTPLSLPVSLGDQASISCRSSQSLVHSNGNTYLHWYLQKPGQSPKLLIYKVSNRFSGVPDRFSGSGSGTDFTLKISRVEAEDLGVYFCSQNTHVPPTFGSGTKLEIKGGGGSGGGGSGGGGSQVQLQQSGAELVRPGASVKLSCKASGYTFTDYEMHWVKQTPVHGLKWIGALDPKTGDTAYSQKFKGKATLTADKSSSTAYMELRSLTSEDSAVYYCTRFYSYTYWGQGTLVTVSA ?
51000

Others:
Quick one: kon of VL1.M7-VH2.M6 humanized scFv (scFv, not shown: a dimerising Fc or GST) scFv: DIVMTQTPLSLSVTPGQPASISCRSSQSLVHSNGNTYLHWYLQKPGQSPQLLIYKVSSRFSGVPDRFSGSGSGTDFTLKISRVEAEDVGVYYCSQGTHVPPTFGQGTKVEIKGGGGSGGGGSGGGGSQVQLVQSGAEVKKPGASVKVSCKASGYTFTSYEMHWVRQAPGQGLEWMGALDPKTGDTAYSQKFQGRVTLTADTSTSTVYMELSSLRSEDTAVYYCTRFYSYTYWGQGTLVTVSS ?
67000
